Test: Cytotoxicity with Vero cells under fluorescent light (confluence)
Details: African green monkey, selectivity index (SI), cytotoxicity versus antibacterial activity, for Gram-positives; 1 h treatment time

Smiles data	selectivity ratio at 1 h
O=C([O-])c1c(Cl)c(Cl)c(Cl)c(Cl)c1-c1c2cc(I)c(=O)c(I)c-2oc2c(I)c([O-])c(I)cc12.[Na+].[Na+]	> 62.5
